Please provide measured EC50 for the entries that follow.
STUDY_SYSTEM: human activated kallikrein enzyme (Homo sapiens)
ASSAY_METHOD_TEXT: Plasma kallikrein inhibition, fluorogenic PFR-AMC substrate, 500 pM activated kallikrein format
Format: biochemical
TEST_CONTEXT: 500 pM activated kallikrein, 300 uM PFR-AMC, 30 min preincubation, 10 min reaction; read-out: Primary Dose Response Assay: Average EC50

Known results for compounds:
COMPOUND	OBS_VALUE
Nc1ccc(Cl)cc1[C@H]1C[C@@H]1C(=O)Nc1cc(NCc2cn3cc(C4CC4)ccc3n2)ccn1 (racemic)	1 to 10 nM
Cc1ccnc([C@H]2C[C@@H]2C(=O)Nc2cc(OCc3cn4cc(C5(F)CC5)cc(N5CC(=O)N(C)C5=O)c4n3)cnn2)n1	< 1 nM
O=C(Nc1cc(NCc2cn3cc(C4CC4)cc(N4CCSCC4=O)c3n2)ncn1)[C@H]1C[C@@H]1c1cccc(Cl)c1	< 1 nM
CN1CCN(c2cc(C3CC3)cn3cc(CNc4ccnc(NC(=O)[C@H]5C[C@@H]5c5cccc(Cl)c5)c4)nc23)C(=O)C1	< 1 nM
O=C(Nc1cc(N2C[C@H](O)C[C@@H]2c2cn3cc(C4CC4)ccc3n2)ncn1)[C@H]1C[C@@H]1c1cccc(Cl)c1	> 6000 nM

For each of the compounds below, note its EC50.
1. Cc1cc(NCc2cn3cc(C4CC4)cc(N4CC(=O)N(C)C4=O)c3n2)cc(NC(=O)[C@H]2C[C@@H]2c2nccc(C)n2)n1
2. Cc1ccnc([C@H]2C[C@@H]2C(=O)Nc2cc(NCc3cn4cc(C5CC5)cc(N5CC6(COC6)OC5=O)c4n3)ncn2)n1

1: < 1 nM; 2: < 1 nM

For each of the compounds below, note its EC50.
1. N#Cc1ccc(Cl)c(F)c1[C@H]1C[C@@H]1C(=O)Nc1cc(NCc2cn3cc(C4CC4)ccc3n2)ncn1 (racemic)
2. N#Cc1cc(C2CC2)cn2cc(CNc3cc(NC(=O)[C@H]4C[C@@H]4c4cccc(Cl)c4)ncn3)nc12 (racemic)
3. CCOC(=O)c1cnc(NC(=O)[C@H]2C[C@@H]2c2nccc(C)n2)nc1OCc1cn2cc(C3CC3)cc(N3CC(=O)N(C)C3=O)c2n1
4. O=C(Nc1cc(NCc2cn3cc(C4CC4)cc(OCc4ccccc4)c3n2)ncn1)[C@H]1C[C@@H]1c1cccc(Cl)c1
5. O=C(Nc1cc(NCc2cn3cc(C4CC4)cc(N4CCCS4(=O)=O)c3n2)ccn1)[C@H]1C[C@@H]1c1cccc(Cl)c1
6. Cc1cc(NCc2cn3cc(C4CC4)cc(N4CCN(C)CC4)c3n2)cc(NC(=O)[C@H]2C[C@@H]2c2cccc(Cl)c2)n1

1: 1 to 10 nM; 2: 1 to 10 nM; 3: < 1 nM; 4: 10 to 100 nM; 5: < 1 nM; 6: < 1 nM

For each of the compounds below, note its EC50.
1. CN1CCN(c2cc(C3CC3)cn3cc(CNc4cc(NC(=O)[C@H]5C[C@@H]5c5cccc(Cl)c5)ccn4)nc23)CC1
2. O=C(Nc1cc(NCc2cn3cc(C4CC4)cc(N4CC(F)C4)c3n2)ccn1)[C@H]1C[C@@H]1c1cccc(Cl)c1

1. < 1 nM
2. 1 to 10 nM

* * *

STUDY_SYSTEM: human activated kallikrein enzyme (Homo sapiens, UniProt P03952)
Sequence (P03952 391-638 limits assumed): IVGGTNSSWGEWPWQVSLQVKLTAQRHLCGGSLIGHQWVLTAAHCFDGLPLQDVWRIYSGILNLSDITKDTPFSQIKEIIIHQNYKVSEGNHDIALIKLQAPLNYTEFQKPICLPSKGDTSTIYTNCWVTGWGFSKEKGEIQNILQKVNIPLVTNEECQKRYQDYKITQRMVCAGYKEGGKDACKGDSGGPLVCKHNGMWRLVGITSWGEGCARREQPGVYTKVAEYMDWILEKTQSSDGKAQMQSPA
Sequence (P03952 20-390 partner limits assumed): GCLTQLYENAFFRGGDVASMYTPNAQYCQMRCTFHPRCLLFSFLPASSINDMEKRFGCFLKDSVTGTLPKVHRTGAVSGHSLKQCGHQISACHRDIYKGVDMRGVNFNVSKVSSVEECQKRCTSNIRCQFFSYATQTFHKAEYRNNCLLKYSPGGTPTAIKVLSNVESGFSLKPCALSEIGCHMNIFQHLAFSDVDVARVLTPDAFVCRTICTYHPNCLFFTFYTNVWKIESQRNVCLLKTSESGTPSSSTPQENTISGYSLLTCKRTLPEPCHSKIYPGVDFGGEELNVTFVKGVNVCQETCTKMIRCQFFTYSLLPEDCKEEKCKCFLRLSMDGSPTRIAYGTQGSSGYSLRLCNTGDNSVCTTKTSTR
ASSAY_METHOD_TEXT: Plasma kallikrein inhibition, fluorogenic PFR-AMC substrate, 500 pM activated kallikrein format
Type: biochemical
TEST_CONTEXT: 500 pM activated kallikrein, 300 uM PFR-AMC, 30 min preincubation, 10 min reaction; read-out: Primary Dose Response Assay: Average EC50
ENDPOINT_LABEL: EC50

COMPOUND	EC50
O=C(Nc1cc(NCc2cn3cc(C4CC4)cc(CCO)c3n2)ccn1)[C@H]1C[C@@H]1c1cccc(Cl)c1 [Example 292]	< 1 nM
Cc1ccnc([C@H]2C[C@@H]2C(=O)Nc2cc(NCc3cn4cc(C5CC5)cc(-n5c(=O)n(C)c(=O)n5C)c4n3)ncn2)n1 [Example 367]	< 1 nM
O=C(Nc1cc(NCc2cn3cc(C4CC4)ccc3n2)ncn1)[C@H]1C[C@@H]1c1ccc(Cl)s1 (racemic) [Example I-185]	100 to 1000 nM
CC(C)c1ccc2nc(CNc3cc(NC(=O)[C@H]4C[C@@H]4c4cccc(Cl)c4)ncn3)cn2c1 [Example I-160]	10 to 100 nM
N#Cc1ccc(Cl)cc1[C@H]1C[C@@H]1C(=O)Nc1nccc2nn(Cc3cn4cc(C5CC5)ccc4n3)cc12 (racemic) [Example 579]	< 1 nM

For each of the compounds below, note its EC50.
1. Cc1nc(NC(=O)[C@H]2C[C@@H]2c2ncc(F)c(C)n2)cc(N[C@H](C)c2cn3cc(C4CC4)cc(N4CC(=O)N(C)C4=O)c3n2)n1 (relative stereo) [Example 491]
2. Cc1ccnc([C@H]2C[C@@H]2C(=O)Nc2cc(NC(C)c3cn4cc(C5CC5)cc(S(C)(=O)=O)c4n3)nc(C)n2)n1 (stereo partly shown) [Example 363]
3. O=C(Nc1cc(NCc2cn3cc(C4CC4)cc(N4CC(=O)N(C5CC5)C4=O)c3n2)ccn1)[C@H]1C[C@@H]1c1cccc(Cl)c1 [Example 513]

["< 1 nM", "< 1 nM", "< 1 nM"]

For each of the compounds below, note its EC50.
1. O=C(Nc1cc(NCc2cn3cc(C4CC4)cc(CCCO)c3n2)ccn1)[C@H]1C[C@@H]1c1cccc(Cl)c1 [Example 291]
2. O=C(Nc1cc(N2C[C@@H](O)C[C@@H]2c2cn3cc(C4CC4)ccc3n2)ccn1)[C@H]1C[C@@H]1c1cccc(Cl)c1 [Example 282]

< 1 nM
1 to 10 nM

For each of the compounds below, note its EC50.
1. Cc1ccnc([C@H]2C[C@@H]2C(=O)Nc2cc(N[C@@H](C)c3cn4cc(C(F)F)cc(N5CC(=O)N(C)C5=O)c4n3)ncn2)n1 [Example 416]
2. O=C(Nc1cc(NCc2cn3cc(C4CC4)cc(C4(O)COC4)c3n2)ccn1)[C@H]1C[C@@H]1c1cccc(Cl)c1 (racemic) [Example I-242]
3. O=C(Nc1nccc2nn(Cc3cn4cc(C5CC5)ccc4n3)cc12)[C@H]1C[C@@H]1c1cc(Cl)ccn1 [Example 577]

["10 to 100 nM", "< 1 nM", "< 1 nM"]
